Target: T1, TIGIT (T cell immunoreceptor with Ig and ITIM domains) (human, UniProt Q495A1 22-141, limits assumed)
T1 construct: also called hTIGIT; human TIGIT
T1 sequence (looked up): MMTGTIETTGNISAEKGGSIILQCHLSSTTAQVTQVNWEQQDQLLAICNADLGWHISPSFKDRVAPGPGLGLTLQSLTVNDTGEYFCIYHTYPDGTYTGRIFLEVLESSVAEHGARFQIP
Test: SPR kinetics
Listed here: items and their measured koff.
Numbers only; they are read as s⁻¹.

Guide cases for koff, answers given:
binder	koff, s⁻¹
TIGIT-211-95 (antibody, V domains shown) VH: EVQLLESGGGLVQPGGSLRLSCAASGFTFPKYGMAWVRQAPGKGLEWVSTISSGGGYTYYPDSVKGRFTISRDNSKNTLYLQMNSLRAEDTAVYYCARDTYLHFDYWGQGTLVTVSS VL: DIQMTQSPSSLSASVGDRVTITCRASQGVRTSLAWYQQKPGKAPKLLIYAKNNRPSGVPSRFSGSGSGTDFTLTISSLQPEDFATYYCQQSYSAPYTFGQGTKVEIK	0.0756
TIGIT-211-77 (antibody, V domains shown) VH: EVQLLESGGGLVQPGGSLRLSCAASGFTFGNYAMAWVRQAPGKGLEWVSSIWPSGGQTWYADSVKGRFTISRDNSKNTLYLQMNSLRAEDTAVYYCAKGGTSFDYWGQGTLVTVSS VL: DIQMTQSPSSLSASVGDRVTITCRASQSVRSYLNWYQQKPGKAPKLLIYAASSLYSGVPSRFSGSGSGTDFTLTISSLQPEDFATYYCQQYASVPVTFGQGTKVEIK	0.0417

// switching to the query binder
Briefly, koff measured for TIGIT-211-116 (antibody, V domains shown) VH: EVQLLESGGGLVQPGGSLRLSCAASGFTFSRYFMGWVRQAPGKGLEWVSAISGSGGNTYYADSVKGRFTISRDNSKNTLYLQMNSLRAEDTAVYYCARVWRNHLDYWGQGTLVTVSS VL: DIQMTQSPSSLSASVGDRVTITCRASQTIERRLNWYQQKPGKAPKLLIYHDNKRPSGVPSRFSGSGSGTDFTLTISSLQPEDFATYYCQQGYTLPWTFGQGTKVEIK : 0.105
